This collection of values is drawn from paper PMC3657136.

assayed_target: ATP-dependent MurE ligase (Mycobacterium tuberculosis)
Sequence (P9WJL3 whole entry): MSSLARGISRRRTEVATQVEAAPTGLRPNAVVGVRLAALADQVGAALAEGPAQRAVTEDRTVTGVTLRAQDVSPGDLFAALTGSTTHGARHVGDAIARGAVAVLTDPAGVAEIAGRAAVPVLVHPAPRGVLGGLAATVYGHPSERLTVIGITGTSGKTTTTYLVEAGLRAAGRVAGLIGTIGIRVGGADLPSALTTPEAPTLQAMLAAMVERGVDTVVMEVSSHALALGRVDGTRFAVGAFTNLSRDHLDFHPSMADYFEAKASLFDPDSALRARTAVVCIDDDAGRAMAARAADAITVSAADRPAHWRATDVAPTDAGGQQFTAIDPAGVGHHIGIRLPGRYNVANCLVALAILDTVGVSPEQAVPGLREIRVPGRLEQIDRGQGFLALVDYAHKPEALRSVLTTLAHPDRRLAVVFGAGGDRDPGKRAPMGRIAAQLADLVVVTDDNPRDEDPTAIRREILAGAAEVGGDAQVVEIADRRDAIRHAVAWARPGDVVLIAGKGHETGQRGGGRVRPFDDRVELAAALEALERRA
quantity_measured: IC50 (µM)
Please respond with the number in µM and leave the unit unwritten.

// query Given the entry C=CC(C)(C)c1c(OC)oc(-c2ccccc2)cc1=O , what IC50 was observed with ATP-dependent MurE ligase (Mycobacterium tuberculosis)?
// result 320
